# key: entry, value: pIC50
Target: LCK (Homo sapiens)
Sequence (P06239 whole entry): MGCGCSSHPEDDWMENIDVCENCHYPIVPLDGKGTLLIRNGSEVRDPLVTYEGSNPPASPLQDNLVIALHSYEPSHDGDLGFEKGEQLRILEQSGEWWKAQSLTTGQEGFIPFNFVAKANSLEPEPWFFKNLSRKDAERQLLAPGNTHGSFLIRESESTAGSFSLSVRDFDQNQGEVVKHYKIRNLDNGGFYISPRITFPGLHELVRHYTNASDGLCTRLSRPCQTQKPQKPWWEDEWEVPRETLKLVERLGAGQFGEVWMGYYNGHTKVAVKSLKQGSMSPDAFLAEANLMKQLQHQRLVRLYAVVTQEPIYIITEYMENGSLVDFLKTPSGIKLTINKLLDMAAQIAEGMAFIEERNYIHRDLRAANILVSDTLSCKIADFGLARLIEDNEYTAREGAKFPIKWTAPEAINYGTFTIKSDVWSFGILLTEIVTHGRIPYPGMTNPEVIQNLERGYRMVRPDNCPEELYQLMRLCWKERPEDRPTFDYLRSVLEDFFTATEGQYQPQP
Assay: Inhibition of a panel of kinases, in vitro HotSpot kinase assay: LCK
Format: biochemical
Conditions: E compounds, Table 17; read-out: IC50 LCK
pIC50: −log10 of the molar value.

Example molecules with recorded pIC50:
>>> reading("C[C@@H]1[C@H](NC(=O)c2ccc(C3CC3)cc2)CCCN1c1cnc(C(N)=O)c(Nc2ccc(N3CCN(C4CCCC4)C[C@@H]3C)cc2)n1")
"7.00 to 8.00"
>>> reading("C[C@@H]1[C@H](NC(=O)c2ccc(-c3ncco3)cc2)CCCN1c1cnc(C(N)=O)c(Nc2cnn(C)c2)n1")
"7.00 to 8.00"

Let us examine a further case.
Req: Supply pIC50 measured with LCK (Homo sapiens) for `C[C@@H]1[C@H](NC(=O)c2ccc3oc(C4CC4)nc3c2)CCCN1c1cnc(C(N)=O)c(Nc2cnn(C)c2)n1` .
Resp: 7.00 to 8.00

* * *

Biological target: ITK (Homo sapiens, UniProt Q08881)
Assay: Inhibition of a panel of kinases, in vitro HotSpot kinase assay: ITK
Type: biochemical
Conditions: D-compounds panel data; 1 μM ATP
readout: IC50

Example compounds with recorded IC50:
>>> reading("C[C@@H]1[C@H](NC(=O)N(C)C)CCCN1c1cnc(C(N)=O)c(Nc2ccc(N3CCN(C)CC3)cc2)c1 [Example D-127]")
"1000 to 10000 nM"
>>> reading("C[C@@H]1[C@H](NC(=O)c2cnc(C3CC3)nc2)CCCN1c1cnc(C(N)=O)c(Nc2cnn(C)c2)n1 [Example D-86]")
"10 to 100 nM"
>>> reading("CC1(c2ccc(Nc3nc(N4CCC[C@@H](n5ccc6cc(C7CC7)ccc6c5=O)C4)cnc3C(N)=O)cc2)CCN(C2CCCC2)CC1 [Example D-177]")
"10 to 100 nM"
>>> reading("C[C@@H]1[C@H](NC(=O)c2ccc(C(C)(C)N(C)C)cc2)CCCN1c1cnc(C(N)=O)c(Nc2cnn(C)c2)n1 [Example D-108]")
"100 to 1000 nM"
>>> reading("C[C@H]1CC[C@@H](NC(=O)N(C)C)CN1c1cnc(C(N)=O)c(Nc2cnn(C)c2)n1 [Example D-152]")
"1000 to 10000 nM"

Req: Quick one: give measured IC50 for C[C@@H]1[C@H](NC(=O)c2cnc(C(C)(C)C)s2)CCCN1c1cnc(C(N)=O)c(Nc2cnn(C)c2)n1 [Example D-239]
Resp: 100 to 1000 nM

Req: Quick one: give measured IC50 for C[C@@H]1[C@H](NC(=O)c2ccc(C3CC3)cc2)CCCN1c1cnc(C(N)=O)c(Nc2ccc(C3(C)CCN(C4CCCC4)CC3)cc2)n1 [Example D-112]
Resp: 10 to 100 nM

* * *

Target: ITK (Homo sapiens)
Sequence (Q08881 1-620): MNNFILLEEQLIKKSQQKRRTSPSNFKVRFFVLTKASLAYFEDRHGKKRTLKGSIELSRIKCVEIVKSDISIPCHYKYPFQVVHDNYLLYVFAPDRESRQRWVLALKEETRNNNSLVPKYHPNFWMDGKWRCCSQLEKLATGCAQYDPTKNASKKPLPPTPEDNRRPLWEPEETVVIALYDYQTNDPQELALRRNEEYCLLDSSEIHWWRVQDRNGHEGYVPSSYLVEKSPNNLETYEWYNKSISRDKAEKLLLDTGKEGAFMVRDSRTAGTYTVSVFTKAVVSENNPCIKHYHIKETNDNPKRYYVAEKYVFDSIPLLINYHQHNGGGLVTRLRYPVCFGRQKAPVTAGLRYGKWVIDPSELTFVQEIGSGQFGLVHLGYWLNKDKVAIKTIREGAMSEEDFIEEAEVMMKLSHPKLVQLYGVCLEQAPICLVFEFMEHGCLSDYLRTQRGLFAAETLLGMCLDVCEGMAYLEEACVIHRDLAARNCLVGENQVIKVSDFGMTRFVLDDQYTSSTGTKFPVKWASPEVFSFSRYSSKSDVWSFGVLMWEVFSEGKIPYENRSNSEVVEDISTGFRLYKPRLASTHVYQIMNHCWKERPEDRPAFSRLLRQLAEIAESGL
Experiment: Inhibition of a panel of kinases, in vitro HotSpot kinase assay: ITK
Type: biochemical
Conditions: E compounds, Table 17
# key: entry, value: IC50

Example molecules with recorded IC50:
>>> reading("C=CC(=O)N1CCC[C@@H](Nc2nnc(C(N)=O)c(Nc3ccc(C4(C#N)CC4)cc3)n2)C1 [Example E-38]")
"≤ 0.01 µM"
>>> reading("C=CC(=O)N1CCC[C@@H](Nc2nnc(C(N)=O)c(Nc3cnn(C)c3)n2)C1 [Example E-73]")
"≤ 0.01 µM"
>>> reading("C[C@@H]1[C@H](NC(=O)c2ccc(C(C)(C)O)cc2)CCCN1c1cnc(C(N)=O)c(Nc2ccc(C3(C)CCN(C4CC4)CC3)cc2)n1 [Example E-147]")
"0.01 to 0.1 µM"

Req: Quick one: give measured IC50 for C=CC(=O)N1CCC[C@@H](Nc2nnc(C(N)=O)c(Nc3cc(F)cc(Cl)c3)n2)C1 [Example E-76]
Resp: 0.01 to 0.1 µM

Req: Quick one: give measured IC50 for C=CC(=O)N[C@@H]1CCCN(c2cnc(C(N)=O)c(Nc3cnn(C)c3)n2)[C@@H]1C [Example E-98]
Resp: 0.1 to 1 µM

Req: Quick one: give measured IC50 for C=CC(=O)NC[C@H]1CCCN1c1nnc(C(N)=O)c(Nc2ccc(C(C)C)cc2)n1 [Example E-90]
Resp: 0.01 to 0.1 µM

Req: Quick one: give measured IC50 for C=CC(=O)N1CCC[C@@H](Nc2nnc(C(N)=O)c(Nc3ccc(C4CC4)cc3)n2)C1 [Example E-36]
Resp: 0.01 to 0.1 µM
